Below is a list of entries, each paired with its recorded growth value.
# Tested on: TK-10 renal
# measurementDescription: NCI-60 one-dose screen, 48 h (100 = growth as untreated, 0 = no growth, -100 = all killed)
# studyConditions: 10 µM
About 83,000 compounds went through this panel and 20% of them were active in at least one assay; those are over-represented in the sample as a whole.
Please give a number only; it is taken to be in %.

The following molecules have reported results that may help.
COc1ccc2c(c1)CC=C1[C@@H]2CC[C@]2(C)C(=O)/C(=N/O)C[C@@H]12 : 92.7
C=CCn1c(SCC(=O)Nc2ccc(C(=O)/C=C/c3ccc(Cl)cc3)cc2)nnc1-c1cc(-c2ccccc2)nc2ccccc12 : 94.8
N=C1S/C(=C/c2ccc(-c3ccc4c(c3)C(=O)NC4=O)o2)C(=O)N1c1ccc(Br)cc1 : 42.6
O=[N+]([O-])c1ccc(NCSc2ccc(Cl)cc2)cc1 : 105
CC(=O)Oc1cc(OC(C)=O)c2ccccc2c1OC(C)=O : 150

## Input What measured growth goes with `O[C@@H]1CO[C@H]2[C@@H]1OC[C@@H]2O` ?
## Output 117

## Input Moving on to the next molecule: `O=C1c2ccccc2C(=O)N1CCCCNc1ccccc1`
## Output 117

## Input Could you do the same for CC1/C=C/C=C/C=C/C=C/C=C/C=C/C=C/C(O[C@@H]2O[C@H](C)[C@H](O)[C@@H](O)[C@@H]2N)CC(O)C(C(=O)O)C(O)CC(=O)CC(O)CC(O)CC(O)CC(=O)CCCC(=O)CC(=O)OC1C(C)CC(C)C(O)CC(=O)c1ccc(N)cc1 (some centres undefined) , please?
## Output -96.8

## Input Here is the next molecule: `CSc1nc(S(C)(=O)=O)nc2[nH]c(=O)[nH]c12`
## Output 119

The reported numbers originate from PubChem BioAssay (NCI).
